Biological target: S100B (Homo sapiens, UniProt P04271)
Construct: made in house; host or cells: Escherichia coli BL21(DE3)
Assay: Competition pull-down with native ligand RSK1 (689–735)
Type: binding
Conditions: H14 library; competitor peptide 200 µM; read-out: Surface mapping KD (apparent), competition
Mark each entry 1.0 if its Kd sits below 300 µM, and 0.0 for all others.

| MOL_SMILES | CLASS_LABEL |
| --- | --- |
| NC(=O)[C@H]1CCCC[C@@H]1NC(=O)C[C@H](Cc1ccc(O)cc1)NC(=O)[C@H]1CCCC[C@@H]1NC(=O)[C@H]1CCCC[C@@H]1NC(=O)C[C@H](CO)NC(=O)[C@H]1CCCC[C@@H]1N | 1.0 |
| CC[C@H](C)[C@@H](CC(=O)N[C@H]1CCCC[C@@H]1C(=O)N[C@H]1CCCC[C@@H]1C(=O)N[C@H](CC(=O)N[C@H]1CCCC[C@@H]1C(N)=O)C(C)C)NC(=O)[C@H]1CCCC[C@@H]1N | 1.0 |
| NC(=O)[C@H]1CCCC[C@@H]1NC(=O)C[C@H](CO)NC(=O)[C@H]1CCCC[C@@H]1NC(=O)[C@H]1CCCC[C@@H]1NC(=O)C[C@H](Cc1ccccc1)NC(=O)[C@H]1CCCC[C@@H]1N | 0.0 |
| NCCCC[C@@H](CC(=O)N[C@H]1CCCC[C@@H]1C(N)=O)NC(=O)[C@H]1CCCC[C@@H]1NC(=O)[C@H]1CCCC[C@@H]1NC(=O)C[C@H](Cc1ccccc1)NC(=O)[C@H]1CCCC[C@@H]1N | 0.0 |

* * *

Target: S100A4 (Homo sapiens, UniProt P26447)
Construct: made in house; host or cells: Escherichia coli BL21(DE3)
Sequence (P26447 whole entry): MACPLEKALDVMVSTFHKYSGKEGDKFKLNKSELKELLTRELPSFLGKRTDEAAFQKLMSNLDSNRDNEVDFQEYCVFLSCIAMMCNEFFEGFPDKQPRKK
Assay: Pull-down assay with immobilized protein and LSM libraries
Format: binding
Conditions: H14 library; 1:1 binding assumed; read-out: Surface mapping KD (apparent)
pKd: −log10 of the molar value.

| MOL_SMILES | TESTED_SYSTEM | pKd |
| --- | --- | --- |
| N=C(N)NCCC[C@@H](CC(=O)N[C@H]1CCCC[C@@H]1C(N)=O)NC(=O)[C@H]1CCCC[C@@H]1NC(=O)[C@H]1CCCC[C@@H]1NC(=O)C[C@H](Cc1ccccc1)NC(=O)[C@H]1CCCC[C@@H]1N | S100A4 (Homo sapiens, UniProt P26447) | 3.91 |
| NC(=O)[C@H]1CCCC[C@@H]1NC(=O)C[C@H](Cc1c[nH]c2ccccc12)NC(=O)[C@H]1CCCC[C@@H]1NC(=O)[C@H]1CCCC[C@@H]1NC(=O)C[C@H](Cc1ccccc1)NC(=O)[C@H]1CCCC[C@@H]1N | S100A4 (Homo sapiens, UniProt P26447) | 4.62 |

* * *

Molecular target: S100B (Homo sapiens)
Construct: made in house; host or cells: Escherichia coli BL21(DE3)
Sequence (P04271 1-92): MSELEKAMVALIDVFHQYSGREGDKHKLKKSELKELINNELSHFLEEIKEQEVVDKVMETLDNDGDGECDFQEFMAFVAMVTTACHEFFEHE
Assay: Pull-down assay with immobilized protein and LSM libraries
Type: binding
Settings: H14 library; 1:1 binding assumed; read-out: Surface mapping KD (apparent)
pKd: −log10 of the molar value.
Each entry below carries its reported pKd.
OBSERVATION_TYPE: pKd

| MOLECULE | VALUE |
| --- | --- |
| NC(=O)CC[C@@H](CC(=O)N[C@H]1CCCC[C@@H]1C(N)=O)NC(=O)[C@H]1CCCC[C@@H]1NC(=O)[C@H]1CCCC[C@@H]1NC(=O)C[C@H](Cc1c[nH]c2ccccc12)NC(=O)[C@H]1CCCC[C@@H]1N [H14 WQ] | 3.79 |
| CC(C)C[C@@H](CC(=O)N[C@H]1CCCC[C@@H]1C(N)=O)NC(=O)[C@H]1CCCC[C@@H]1NC(=O)[C@H]1CCCC[C@@H]1NC(=O)C[C@H](Cc1ccc(O)cc1)NC(=O)[C@H]1CCCC[C@@H]1N [H14 YL] | 4.21 |

* * *

Target: S100B (Homo sapiens, UniProt P04271)
Construct: made in house; host or cells: Escherichia coli BL21(DE3)
Assay: Pull-down assay with immobilized protein and LSM libraries
Format: binding
Settings: H14 library; 1:1 binding assumed; read-out: Surface mapping KD (apparent)
Experimental: Pull-down assays with immobilized test proteins and foldameric LSM libraries were carried out. Proteins were equilibrated with LSM probes, and equilibrium bound fractions (FB) were determined from the unbound fractions measured by HPLC-MS methods. Hits were corrected with background binding of the resin. […] MS data analysis. […] Using these processing setups, all raw data files were reprocessed together and analyzed. […]
pKd: −log10 of the molar value.

| MOL_SMILES | pKd |
| --- | --- |
| N=C(N)NCCC[C@@H](CC(=O)N[C@H]1CCCC[C@@H]1C(N)=O)NC(=O)[C@H]1CCCC[C@@H]1NC(=O)[C@H]1CCCC[C@@H]1NC(=O)C[C@H](CCC(N)=O)NC(=O)[C@H]1CCCC[C@@H]1N | 3.97 |
| CC(C)C[C@@H](CC(=O)N[C@H]1CCCC[C@@H]1C(=O)N[C@H]1CCCC[C@@H]1C(=O)N[C@H](CC(=O)N[C@H]1CCCC[C@@H]1C(N)=O)C(C)C)NC(=O)[C@H]1CCCC[C@@H]1N | 4.25 |
| N=C(N)NCCC[C@@H](CC(=O)N[C@H]1CCCC[C@@H]1C(=O)N[C@H]1CCCC[C@@H]1C(=O)N[C@@H](CO)CC(=O)N[C@H]1CCCC[C@@H]1C(N)=O)NC(=O)[C@H]1CCCC[C@@H]1N | 3.38 |
| CC[C@H](C)[C@@H](CC(=O)N[C@H]1CCCC[C@@H]1C(=O)N[C@H]1CCCC[C@@H]1C(=O)N[C@H](CC(=O)N[C@H]1CCCC[C@@H]1C(N)=O)C(C)C)NC(=O)[C@H]1CCCC[C@@H]1N | 4.37 |
| CSCC[C@@H](CC(=O)N[C@H]1CCCC[C@@H]1C(N)=O)NC(=O)[C@H]1CCCC[C@@H]1NC(=O)[C@H]1CCCC[C@@H]1NC(=O)C[C@H](CCCNC(=N)N)NC(=O)[C@H]1CCCC[C@@H]1N | 4.10 |

* * *

Listing of recorded pKd by entry.
Target: Gal-1 (Homo sapiens)
Construct: made in house; host or cells: E. coli BL21(DE3)
Sequence (P09382 whole entry): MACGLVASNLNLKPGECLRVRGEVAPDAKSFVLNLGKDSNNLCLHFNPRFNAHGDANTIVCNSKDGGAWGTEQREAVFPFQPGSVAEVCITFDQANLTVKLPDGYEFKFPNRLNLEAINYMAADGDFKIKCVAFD
Assay: Competition pull-down with lactose
Type: binding
Details: H14 library; lactose 10 mM; read-out: Surface mapping KD (apparent), competition
pKd: −log10 of the molar value.
OBSERVATION_TYPE: pKd

| MOL_SMILES | OBSERVATION_TYPE | VALUE |
| --- | --- | --- |
| NC(=O)[C@H]1CCCC[C@@H]1NC(=O)C[C@H](Cc1c[nH]c2ccccc12)NC(=O)[C@H]1CCCC[C@@H]1NC(=O)[C@H]1CCCC[C@@H]1NC(=O)C[C@H](Cc1c[nH]c2ccccc12)NC(=O)[C@H]1CCCC[C@@H]1N | pKd | 4.29 |
| NC(=O)C[C@@H](CC(=O)N[C@H]1CCCC[C@@H]1C(N)=O)NC(=O)[C@H]1CCCC[C@@H]1NC(=O)[C@H]1CCCC[C@@H]1NC(=O)C[C@H](CC(N)=O)NC(=O)[C@H]1CCCC[C@@H]1N | pKd | 3.35 |
| CSCC[C@@H](CC(=O)N[C@H]1CCCC[C@@H]1C(N)=O)NC(=O)[C@H]1CCCC[C@@H]1NC(=O)[C@H]1CCCC[C@@H]1NC(=O)C[C@H](Cc1c[nH]c2ccccc12)NC(=O)[C@H]1CCCC[C@@H]1N | pKd | 3.52 |
| CC(C)C[C@@H](CC(=O)N[C@H]1CCCC[C@@H]1C(N)=O)NC(=O)[C@H]1CCCC[C@@H]1NC(=O)[C@H]1CCCC[C@@H]1NC(=O)C[C@H](Cc1ccc(O)cc1)NC(=O)[C@H]1CCCC[C@@H]1N | pKd | 3.59 |

* * *

Listed here are compounds together with their documented Kd.
Molecular target: CaM (Bos taurus)
Construct: made in house; host or cells: E. coli BL21 (DE3)
Experiment: Pull-down assay with immobilized protein and LSM libraries
Format: binding, bovine
Conditions: H14 library; 1:2 stoichiometry assumed; read-out: Surface mapping KD (apparent)

| COMPOUND | Kd [µM] |
| --- | --- |
| C[C@@H](CC(=O)N[C@H]1CCCC[C@@H]1C(N)=O)NC(=O)[C@H]1CCCC[C@@H]1NC(=O)[C@H]1CCCC[C@@H]1NC(=O)C[C@H](Cc1c[nH]c2ccccc12)NC(=O)[C@H]1CCCC[C@@H]1N [H14 WA] | 3 |
| CC(C)C[C@@H](CC(=O)N[C@H]1CCCC[C@@H]1C(=O)N[C@H]1CCCC[C@@H]1C(=O)N[C@H](CC(=O)N[C@H]1CCCC[C@@H]1C(N)=O)C(C)C)NC(=O)[C@H]1CCCC[C@@H]1N [H14 LV] | 3 |
| NC(=O)[C@H]1CCCC[C@@H]1NC(=O)C[C@H](Cc1ccccc1)NC(=O)[C@H]1CCCC[C@@H]1NC(=O)[C@H]1CCCC[C@@H]1NC(=O)C[C@H](CO)NC(=O)[C@H]1CCCC[C@@H]1N [H14 SF] | 30 |
| NC(=O)[C@H]1CCCC[C@@H]1NC(=O)C[C@H](CO)NC(=O)[C@H]1CCCC[C@@H]1NC(=O)[C@H]1CCCC[C@@H]1NC(=O)C[C@H](CO)NC(=O)[C@H]1CCCC[C@@H]1N [H14 SS] | 172 |
| N=C(N)NCCC[C@@H](CC(=O)N[C@H]1CCCC[C@@H]1C(=O)N[C@H]1CCCC[C@@H]1C(=O)N[C@H](CC(=O)N[C@H]1CCCC[C@@H]1C(N)=O)Cc1ccc(O)cc1)NC(=O)[C@H]1CCCC[C@@H]1N [H14 RY] | 16 |
| CC[C@H](C)[C@@H](CC(=O)N[C@H]1CCCC[C@@H]1C(N)=O)NC(=O)[C@H]1CCCC[C@@H]1NC(=O)[C@H]1CCCC[C@@H]1NC(=O)C[C@H](CCCNC(=N)N)NC(=O)[C@H]1CCCC[C@@H]1N [H14 RI] | 10 |
| CC(C)[C@@H](CC(=O)N[C@H]1CCCC[C@@H]1C(N)=O)NC(=O)[C@H]1CCCC[C@@H]1NC(=O)[C@H]1CCCC[C@@H]1NC(=O)C[C@H](CO)NC(=O)[C@H]1CCCC[C@@H]1N [H14 SV] | 101 |
| N=C(N)NCCC[C@@H](CC(=O)N[C@H]1CCCC[C@@H]1C(=O)N[C@H]1CCCC[C@@H]1C(=O)N[C@@H](CCC(N)=O)CC(=O)N[C@H]1CCCC[C@@H]1C(N)=O)NC(=O)[C@H]1CCCC[C@@H]1N [H14 RQ] | 326 |
| CC[C@H](C)[C@@H](CC(=O)N[C@H]1CCCC[C@@H]1C(=O)N[C@H]1CCCC[C@@H]1C(=O)N[C@@H](C)CC(=O)N[C@H]1CCCC[C@@H]1C(N)=O)NC(=O)[C@H]1CCCC[C@@H]1N [H14 IA] | 16 |

This collection of values is drawn from paper PMC8162404.
